Molecular target: MAGL (Homo sapiens, UniProt Q99685)
Sequence (Q99685 1-303): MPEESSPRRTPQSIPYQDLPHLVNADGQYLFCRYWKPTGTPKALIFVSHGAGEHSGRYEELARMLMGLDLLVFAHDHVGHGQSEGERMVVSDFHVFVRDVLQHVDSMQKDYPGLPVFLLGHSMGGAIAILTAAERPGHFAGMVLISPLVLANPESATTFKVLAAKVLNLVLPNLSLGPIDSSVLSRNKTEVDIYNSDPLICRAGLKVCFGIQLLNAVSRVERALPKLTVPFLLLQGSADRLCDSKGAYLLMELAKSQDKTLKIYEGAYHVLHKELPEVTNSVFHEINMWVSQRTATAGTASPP
Provide the recorded pIC50 for the entries that follow.
Please express pIC50 as -log10 of the molar concentration.

[in] Please provide the recorded pIC50 for `N#Cc1cc(-c2cccc(C(=O)N3CCN4C[C@@H](c5ccc(F)c(Cl)c5)OC[C@@H]4C3)c2Cl)n[nH]1` , tested on MAGL (Homo sapiens, UniProt Q99685).
[out] 6.72

[in] Again, but for `O=C(c1cccc(-c2c[nH]nc2F)c1Cl)N1CCN2C[C@@](F)(c3ccc(C(F)(F)F)nc3)OC[C@@H]2C1`
[out] 7.97

[in] Same question for COc1cccc(C(=O)N2CCN3C[C@H](c4ccc(Br)cn4)OC[C@H]3C2)c1Cl (racemic) please.
[out] 7.12

[in] Note, next up: `N#Cc1cc(-c2cc(F)cc(C(=O)N3CCN4C[C@@H](c5ccc(C(F)(F)F)[nH]c5=O)OC[C@@H]4C3)c2Cl)c[nH]1`
[out] 8.19

[in] Also need `N#Cc1cc(-c2cccc(C(=O)N3CCN4C[C@@](O)(c5ccc(F)c(F)c5)OC[C@@H]4C3)c2Cl)c[nH]1` , thanks.
[out] 8.12

[in] Entry to check: `O=C(c1cccc(-c2n[nH]cc2F)c1Cl)N1CCN2C[C@@H](c3cc(Cl)c[nH]c3=O)OC[C@@H]2C1`
[out] 6.56

[in] Cool, now `O=C(c1cccc(-c2c[nH]nc2F)c1Cl)N1CCN2C[C@@H](c3ccc(C(F)(F)F)nn3)OC[C@@H]2C1`
[out] 6.36

[in] And what about the molecule `O=C(c1cccc(OC(F)(F)F)c1F)N1CCN2C[C@@H](c3ccc(F)c(Cl)c3)OC[C@@H]2C1` ?
[out] 6.13

[in] Item: `O=C(c1cccc(-c2cn[nH]c2)c1Cl)N1CCN2C[C@@H](c3ccc(F)c(Cl)c3)OC[C@@H]2C1`
[out] 8.72

[in] Would you mind doing `O=C(c1cnc2[nH]ncc2c1Cl)N1CCN2C[C@@H](c3ccc(F)c(Cl)c3)OC[C@@H]2C1` as well?
[out] 6.15

[in] Subsequent entry: `N#Cc1cc(-c2cc(F)cc(C(=O)N3CCN4C[C@@H](c5c[nH]c(C(F)(F)F)cc5=O)OC[C@@H]4C3)c2Cl)c[nH]1`
[out] 6.88

[in] Now consider `COc1cccc(C(=O)N2CCN3C[C@@H](c4cc(OC(F)(F)F)ccn4)OC[C@@H]3C2)c1Cl` .
[out] 6.55

[in] How about `COc1cccc(C(=O)N2CCN3C[C@@H](c4cc(Cl)c[nH]c4=O)OC[C@@H]3C2)c1Cl` ?
[out] 6.07

[in] // same read-out, input: `O=C(c1cccc(-c2cnco2)c1Cl)N1CCN2C[C@@](O)(c3ccc(F)c(Cl)c3)OC[C@@H]2C1`
[out] 7.81

[in] Then COc1cccc(C(=O)N2CCN3CC(c4ccc5c(c4)CC5)OCC3C2)c1Cl (mixture of isomers) ?
[out] 6.87

[in] Repeat for the following molecule: `COc1cccc(C(=O)N2CCN3C[C@@H](c4cc(C)c(Cl)cn4)OC[C@@H]3C2)c1Cl`
[out] 7.03

[in] Quick one: `COc1cccc(C(=O)N2CCN3C[C@@](O)(c4ccc(F)c(Cl)c4)OC[C@@H]3C2)c1Cl`
[out] 7.71

[in] Note, next up: `O=C(c1cccc(-c2c[nH]nc2F)c1Cl)N1CCN2C[C@@H](c3ccc(F)c(F)c3)OC[C@@H]2C1`
[out] 8.12

[in] // repeat for `COc1cccc(C(=O)N2CCN3C[C@@H](c4ccc(Br)c(Cl)c4)OC[C@@H]3C2)c1Cl` and report
[out] 8.30

[in] Record: COc1cccc(C(=O)N2CCN3C[C@H](c4cncc(Cl)c4)OC[C@@H]3C2)c1Cl (racemic)
[out] 5.65
